System: NCI-H23
assay.procedure: NCI tumour cell line growth inhibition, 48 h
Activity calls are given as the source filed them. Cut-off read from the data, not from the text of the source: active = GI50 up to about 1.1 µM and inactive = higher.
Possible outcomes: True (active), False (inactive)

{"compound": "COc1ccc(-c2cc(O)c3cc4c(cc3n2)OCO4)c(OC)c1", "target.desc": "NCI-H23", "class.name": "False"}
{"compound": "Cc1ccc(S(=O)(=O)OCC(=O)O)cc1", "target.desc": "NCI-H23", "class.name": "False"}
{"compound": "CCCCNC(=O)OCCN=C1c2ccccc2C(Br)C(Br)c2ccccc21 (stereo not drawn)", "target.desc": "NCI-H23", "class.name": "False"}
{"compound": "Nc1c(OCC(=O)O)ccc2cc(S(=O)(=O)O)ccc12", "target.desc": "NCI-H23", "class.name": "False"}
{"compound": "NC(CCCCNCc1ccccc1)C(=O)O (stereo not drawn)", "target.desc": "NCI-H23", "class.name": "False"}
{"compound": "N/N=C1/C(=O)N(c2ccc(Cl)cc2)C(=O)C(=O)C1c1nc2ccccc2s1 (stereo not drawn)", "target.desc": "NCI-H23", "class.name": "False"}
{"compound": "O=[N+]([O-])c1ccc(Cl)cc1N/N=C/c1cccc2cccnc12", "target.desc": "NCI-H23", "class.name": "False"}
{"compound": "Cc1cn2c(/C=N/NC(=N)N)c(-c3ccc(Cl)c([N+](=O)[O-])c3)nc2s1", "target.desc": "NCI-H23", "class.name": "False"}
{"compound": "Fc1cccc(/C=N/C23CC4CC(CC(C4)C2)C3)c1", "target.desc": "NCI-H23", "class.name": "False"}
{"compound": "O=C(CN1CCCCC1)N1CCc2c([nH]c3ccccc23)C1c1cccnc1 (stereo not drawn)", "target.desc": "NCI-H23", "class.name": "False"}
{"compound": "Cc1c(C(=O)/C=C/c2ccccc2Cl)[n+]([O-])c2ccccc2[n+]1[O-]", "target.desc": "NCI-H23", "class.name": "False"}
{"compound": "CC(C)C(=O)Nc1cc(C(F)(F)F)ccc1[N+](=O)[O-]", "target.desc": "NCI-H23", "class.name": "False"}
{"compound": "O=c1sc(Nc2ccc3ccccc3c2Cl)nc2ccccc12", "target.desc": "NCI-H23", "class.name": "False"}
{"compound": "COc1cc2c(cc1OC)-c1c3c(cc4c1[C@@H](C2)N(C)CC4)OCO3", "target.desc": "NCI-H23", "class.name": "False"}
{"compound": "COC(=O)C#CCC1CCCC1C1SCCS1 (stereo not drawn)", "target.desc": "NCI-H23", "class.name": "False"}
{"compound": "COc1ccc2nc3cc(Cl)ccc3c(NCCNCCCNC(=O)c3cc(-c4ccccc4)nc4ccccc34)c2c1", "target.desc": "NCI-H23", "class.name": "False"}
{"compound": "COC(C(O)c1ccc2c(c1)OCO2)P(=O)(c1ccccc1)c1ccccc1 (stereo not drawn)", "target.desc": "NCI-H23", "class.name": "False"}
{"compound": "CCc1nc(Cl)nc(Cl)c1Cl", "target.desc": "NCI-H23", "class.name": "True"}
{"compound": "[N-]=[N+]=NC(CI)c1cn([C@H]2C[C@H](O)[C@@H](CO)O2)c(=O)[nH]c1=O (stereo partly drawn)", "target.desc": "NCI-H23", "class.name": "False"}
{"compound": "COc1ccc2cc(C(C)C(=O)N3CCOC3=O)ccc2c1 (stereo not drawn)", "target.desc": "NCI-H23", "class.name": "False"}
{"compound": "CSc1ncc2c(n1)-c1ccccc1OC2", "target.desc": "NCI-H23", "class.name": "False"}
{"compound": "Cc1ccc(S(=O)(=O)NC(=O)C2=C(c3ccccc3)[N-]N(C)c3nc4cccc[n+]4nc32)cc1", "target.desc": "NCI-H23", "class.name": "False"}
{"compound": "OCC1COc2cc(Cl)c(Cl)cc2O1 (stereo not drawn)", "target.desc": "NCI-H23", "class.name": "False"}
